Would you mind telling me the reported NEUTROPHIL of each entry?
- Organism: Rattus norvegicus
- ASSAY EXPLANATION: DrugMatrix - Regimen: Daily Repeat
- Format: toxicity, organism-based, Sprague-Dawley
- Design: regimen Daily Repeat, gender Male, age 6-8 weeks
- PARTICULARS: in vivo, po, 0 mg/kg, 120 h, tissue Blood, route oral GAVAGE, dose level Control, time 5 day, vehicle 100 % WATER
Give bare numbers, in %.

See these solved cases before continuing.
COMPOUND	READOUT UNIT	NEUTROPHIL
CN(C)CC[C@@H](c1ccc(Cl)cc1)c1ccccn1 [DEXCHLORPHENIRAMINE]	%	6.83
C[C@]12C=CC(=O)C=C1CC[C@@H]1[C@@H]2[C@@H](O)C[C@@]2(C)[C@H]1CC[C@]2(O)C(=O)CO [PREDNISOLONE]	%	12

Can you give me NEUTROPHIL for all of these, one by one?
1. NNc1nncc2ccccc12 [HYDRALAZINE]
2. Cn1c(=O)c2[nH]cnc2n(C)c1=O.O [THEOPHYLLINE]

Solution:
1: 9.17; 2: 13.33
